Test: SRA737 monotherapy clinical study (SRA737-01), pharmacokinetics
Type: in vivo, human
Experimental setup: human, in vivo, 800 mg
Measurement kind: AUC(0-t) (ng·h/mL)
Lab book: enter the figure in ng·h/mL, no units written.

Req: Supply reported AUC(0-t) belonging to this compound: N#Cc1cnc(Nc2cc(NCC3CNCCO3)c(C(F)(F)F)cn2)cn1 (stereo not shown) [SRA737]
Resp: 18500

###

Test: SRA737 monotherapy clinical study (SRA737-01), pharmacokinetics
Type: in vivo, human
Experimental setup: human, in vivo, 300 mg
Protocol: A Phase 1 clinical trial was conducted in ‘all comers,’ i.e. no genetic selection was performed, to establish safety, tolerability and pharmacokinetics (“Dose Escalation Phase”). […] Cmin was calculated at 1000 mg QD (411 ng/mL) and exceeded that determined in preclinical models to be effective. […]
Measurement kind: Vd/F (L)
Kindly provide the numeric value in L only, without the unit symbol.

Req: Look up Vd/F of N#Cc1cnc(Nc2cc(NCC3CNCCO3)c(C(F)(F)F)cn2)cn1 (stereo not shown) [SRA737] and report it.
Resp: 1020

###

Test: SRA737 monotherapy clinical study (SRA737-01), pharmacokinetics
Format: in vivo, human
Experimental setup: human, in vivo, 800 mg
Measurement kind: Vd/F (L)
Could you give me the number in L? Just the number is fine.

Req: Specify reported Vd/F for the compound shown: N#Cc1cnc(Nc2cc(NCC3CNCCO3)c(C(F)(F)F)cn2)cn1 (stereo not shown)
Resp: 596

###

Test: SRA737 monotherapy clinical study (SRA737-01), pharmacokinetics
Type: in vivo, human
Experimental setup: human, in vivo, 800 mg
Measurement kind: Cmax (ng/mL)
Give the value, in units of ng/mL, as a plain number.

Req: Specify measured Cmax for N#Cc1cnc(Nc2cc(NCC3CNCCO3)c(C(F)(F)F)cn2)cn1 (stereo not shown) [SRA737] .
Resp: 1880

###

Test: SRA737 plasma and tumor concentrations in HT29 xenograft model
Type: in vivo, mice
Experimental setup: mouse, plasma, oral; mice; sustained for 24 hours; PK/PD benchmark; read-out: plasma concentration with anti-tumor activity in preclinical efficacy models
Measurement kind: concentration at 24 h
Please don't drop the unit; write it after the number.

Req: State its concentration at 24 h: N#Cc1cnc(Nc2cc(NCC3CNCCO3)c(C(F)(F)F)cn2)cn1 (stereo not shown) [SRA737]
Resp: 100 nM

###

Test: SRA737 monotherapy clinical study (SRA737-01), pharmacokinetics
Type: in vivo, human
Experimental setup: human, in vivo, 1000 mg
Measurement kind: Vd/F (L)
Give the number; L is assumed, so skip it.

Req: Please list Vd/F recorded for the compound N#Cc1cnc(Nc2cc(NCC3CNCCO3)c(C(F)(F)F)cn2)cn1 (stereo not shown)
Resp: 704

###

Test: SRA737 monotherapy clinical study (SRA737-01), pharmacokinetics
Type: in vivo, human
Experimental setup: human, in vivo, 1300 mg
Measurement kind: Vd/F (L)
API: value field is a number in L; no unit string.

Req: // fetch Vd/F given entry N#Cc1cnc(Nc2cc(NCC3CNCCO3)c(C(F)(F)F)cn2)cn1 (stereo not shown)
Resp: 625
